In this section, each of the compounds is paired with its reported Activity.
Target: Estrogen receptor (Homo sapiens) (UniProt P03372)
Sequence (whole entry): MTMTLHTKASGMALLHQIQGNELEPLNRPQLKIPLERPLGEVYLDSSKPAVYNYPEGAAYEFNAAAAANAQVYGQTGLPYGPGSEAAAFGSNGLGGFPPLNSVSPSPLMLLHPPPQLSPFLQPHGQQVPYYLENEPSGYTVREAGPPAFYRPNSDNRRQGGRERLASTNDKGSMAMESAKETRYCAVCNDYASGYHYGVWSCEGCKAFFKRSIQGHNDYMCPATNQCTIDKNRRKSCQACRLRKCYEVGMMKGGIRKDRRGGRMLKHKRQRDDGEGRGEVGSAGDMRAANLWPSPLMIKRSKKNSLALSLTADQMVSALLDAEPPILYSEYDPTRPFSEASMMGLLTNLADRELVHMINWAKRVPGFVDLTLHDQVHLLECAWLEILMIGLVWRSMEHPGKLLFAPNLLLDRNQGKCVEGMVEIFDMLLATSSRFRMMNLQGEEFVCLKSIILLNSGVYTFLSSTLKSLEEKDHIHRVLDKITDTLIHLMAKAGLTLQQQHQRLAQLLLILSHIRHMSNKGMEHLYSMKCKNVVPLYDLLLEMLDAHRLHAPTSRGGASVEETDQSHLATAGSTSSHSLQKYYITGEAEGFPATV
Assay: Displacement of fluorescein-labeled estradiol from human recombinant ERalpha at 1 uM by fluorescence polarization assay
Respond numerically; units are % and should not be typed.

Solved cases below.
- COMPOUND: "C=C(CCC)[C@@H](NC(=O)c1ccccc1Cl)c1ccccc1"
  READING UNIT: "%"
  OBSERVED VALUE: 68
- COMPOUND: "CCC/C=C(\\CCC)[C@@H](NC(=O)CCc1ccccc1)c1ccc(C(F)(F)F)cc1"
  READING UNIT: "%"
  OBSERVED VALUE: 31
- COMPOUND: "CCCC[C@@H]1C[C@H]1C(NC(=O)c1cccs1)c1ccc(C(F)(F)F)cc1 (single isomer, unassigned)"
  READING UNIT: "%"
  OBSERVED VALUE: 58
- COMPOUND: "CCCC[C@@H]1C[C@H]1[C@@H](NC(=O)c1ccco1)c1ccc(C(F)(F)F)cc1"
  READING UNIT: "%"
  OBSERVED VALUE: 15

q: Could you share which Activity value was measured for CCC/C=C(\CCC)[C@@H](NS(=O)(=O)c1ccc(C(F)(F)F)cc1)c1ccc(-c2ccccc2)cc1 ?
a: 14

q: What about CCC/C=C(\CCC)[C@@H](NC(=O)CC(C)C)c1ccccc1 ?
a: 84

q: What about this compound? CCCC[C@@H]1C[C@H]1[C@@H](NS(=O)(=O)c1cccc2cccnc12)c1ccc(-c2ccccc2)cc1
a: 74

q: // next record CCCC[C@@H]1C[C@@]1(C)[C@@H](NS(=O)(=O)c1cccc2cccnc12)c1ccc(-c2ccccc2)cc1
a: 52

q: Follow-up entry: CCC/C=C(\CCC)[C@@H](NP(=O)(c1ccccc1)c1ccccc1)c1ccccc1
a: 25

q: Consider next the compound C=C(CCCC)[C@@H](NC(=O)c1ccco1)c1ccccc1 in the same way.
a: 29

q: Next compound up: CCC/C=C(\CCC)[C@@H](NS(=O)(=O)c1cccc2cccnc12)c1ccc(-c2ccccc2)cc1
a: 28

q: Now the compound CCC/C=C(\CCC)[C@@H](NS(=O)(=O)c1ccc(C(F)(F)F)cc1)c1ccccc1
a: 74

q: Note, next up: CCCCCC/C=C(\C)[C@@H](NC(=O)c1ccc(C(F)(F)F)cc1)c1ccc(-c2ccccc2)cc1
a: 20

q: Moving on to CCC[C@@H]1C[C@@]1(CCC)[C@@H](NP(=O)(c1ccccc1)c1ccccc1)c1ccc(Cl)cc1
a: 30
